# Tested on: pigweed (Amaranthus retroflexus)
# ASSAY COMMENT: Test B pre/postemergence
# Assay type: in vivo
# PROTOCOL CONDITIONS: Preemergence, 500 g ai/ha; scale 0 to 100 (0 no effect, 100 complete control)
EXPERIMENTAL ENDPOINT: Plant response rating, Pigweed
Give only the figure.

# COMPOUND, SYSTEM UNDER TEST, EXPERIMENTAL ENDPOINT, NUMERIC RESULT
rows = [
    ("CCOC(=O)c1nc(C2CC2)nc(NOCc2ccccc2)c1Br [Compound 54]", "pigweed (Amaranthus retroflexus)", "Plant response rating, Pigweed", 100),
    ("CCOC(=O)c1nc(C2CC2)nc(NNC(C)=O)c1Br [Compound 126]", "pigweed (Amaranthus retroflexus)", "Plant response rating, Pigweed", 80),
    ("CN(C)N=Cc1nc(C2CC2)nc(N)c1Br [Compound 50]", "pigweed (Amaranthus retroflexus)", "Plant response rating, Pigweed", 90),
]

Would you kindly look at the next entry?
Query string: Identify the reported Plant response rating, Pigweed for the following entry. CC(=O)NN=Cc1nc(C2CC2)nc(N)c1Br [Compound 51]
Result string: 70

Source listed as patent US8802597B2.
